test system: LAD2 cells; test: LAD2 cells assay (degranulation, β-hexosaminidase release); type: cell-based; conditions: Homo sapiens, 0.5 h; IgE-sensitized LAD2 cells, 30 min with compound, activated with 125 ng/ml streptavidin; released β-hexosaminidase; read-out: LAD2IC50
IC50 for assorted compounds
PARAMETER: IC50 (nM)

{"SMILES REPR": "Cc1ccnc(Nc2cc3ccccc3c(-c3ccnc(N4CCNCC4)c3)n2)c1", "VALUE REPORTED": 434}
{"SMILES REPR": "OC1CCN(c2cc(Nc3cnccn3)nc(-c3ccnc(N4CCNCC4)c3)c2)CC1", "VALUE REPORTED": 400}
{"SMILES REPR": "O=C(Nc1cc(Nc2cnccn2)nc(-c2ccnc(N3CCNCC3)c2)c1)c1ccc(F)cc1", "VALUE REPORTED": 290}
{"SMILES REPR": "O=C(O)c1cccc(C(=O)Nc2cc(Nc3cnccn3)nc(-c3ccnc(N4CCNCC4)c3)c2)c1", "VALUE REPORTED": 81}

====

target: Recombinant human full-length Syk (Homo sapiens, UniProt P43405); construct: Recombinant human full-length Syk was supplied by Millipore; purchased Millipore; test: Syk enzyme assay - radioactive filtration kinase assay; format: biochemical; conditions: Syk 1nM final, poly-GT 100 µg/ml, [γ-33P] ATP, 40 min at room temperature; read-out: Syk IC50
pIC50: −log10 of the molar value.

{"SMILES REPR": "Cc1ccnc(Nc2cc3ccccc3c(-c3ccnc(N4CCNCC4)c3)n2)c1", "SYSTEM": "Recombinant human full-length Syk (Homo sapiens, UniProt P43405)", "pIC50": 7.74}
{"SMILES REPR": "OC1CCN(c2cc(Nc3cnccn3)nc(-c3ccnc(N4CCNCC4)c3)c2)CC1", "SYSTEM": "Recombinant human full-length Syk (Homo sapiens, UniProt P43405)", "pIC50": 8.09}
{"SMILES REPR": "O=C(O)C[C@H](Cc1ccccc1)NC(=O)c1cccc(C(=O)Nc2cc(Nc3cnccn3)nc(-c3ccnc(N4CCNCC4)c3)c2)c1", "SYSTEM": "Recombinant human full-length Syk (Homo sapiens, UniProt P43405)", "pIC50": 7.89}
{"SMILES REPR": "CC(=O)Nc1cc(Nc2cnccn2)nc(-c2ccnc(N3CCNCC3)c2)c1", "SYSTEM": "Recombinant human full-length Syk (Homo sapiens, UniProt P43405)", "pIC50": 8.10}
{"SMILES REPR": "COC(=O)c1cccc(C(=O)Nc2cc(Nc3cnccn3)nc(-c3ccnc(N4CCNCC4)c3)c2)c1", "SYSTEM": "Recombinant human full-length Syk (Homo sapiens, UniProt P43405)", "pIC50": 8.22}
{"SMILES REPR": "COc1ccc(C(=O)Nc2cc(Nc3cnccn3)nc(-c3ccnc(N4CCNCC4)c3)c2)cc1", "SYSTEM": "Recombinant human full-length Syk (Homo sapiens, UniProt P43405)", "pIC50": 7.92}
{"SMILES REPR": "O=C(Nc1cc(Nc2cnccn2)nc(-c2ccnc(N3CCNCC3)c2)c1)c1cccc(C(F)(F)F)c1", "SYSTEM": "Recombinant human full-length Syk (Homo sapiens, UniProt P43405)", "pIC50": 8.15}
{"SMILES REPR": "C1=C(c2cccc(-c3cccc(Nc4cnccn4)n3)c2)CCNC1", "SYSTEM": "Recombinant human full-length Syk (Homo sapiens, UniProt P43405)", "pIC50": 7.70}
{"SMILES REPR": "NCCc1cccc(-c2cccc(Nc3cc(C(F)(F)F)ccn3)n2)c1", "SYSTEM": "Recombinant human full-length Syk (Homo sapiens, UniProt P43405)", "pIC50": 8.10}
{"SMILES REPR": "FC(F)(F)c1ccnc(Nc2cccc(-c3cccc(C4CCNCC4)c3)n2)c1", "SYSTEM": "Recombinant human full-length Syk (Homo sapiens, UniProt P43405)", "pIC50": 8.93}
{"SMILES REPR": "O=C(Nc1cc(Nc2cnccn2)nc(-c2ccnc(N3CCNCC3)c2)c1)c1ccc2c(c1)OCO2", "SYSTEM": "Recombinant human full-length Syk (Homo sapiens, UniProt P43405)", "pIC50": 8.05}
{"SMILES REPR": "O=C(C[C@H](Cc1ccccc1)C(=O)O)Nc1cc(Nc2cnccn2)nc(-c2ccnc(N3CCNCC3)c2)c1", "SYSTEM": "Recombinant human full-length Syk (Homo sapiens, UniProt P43405)", "pIC50": 7.80}
{"SMILES REPR": "O=C(CCc1ccccc1)Nc1cc(Nc2cnccn2)nc(-c2ccnc(N3CCNCC3)c2)c1", "SYSTEM": "Recombinant human full-length Syk (Homo sapiens, UniProt P43405)", "pIC50": 8.10}
{"SMILES REPR": "O=C(O)c1cccc(C(=O)Nc2cc(Nc3cnccn3)nc(-c3ccnc(N4CCNCC4)c3)c2)c1", "SYSTEM": "Recombinant human full-length Syk (Homo sapiens, UniProt P43405)", "pIC50": 8.22}
{"SMILES REPR": "O=C(Nc1cc(Nc2cnccn2)nc(-c2ccnc(N3CCNCC3)c2)c1)c1ccc(F)cc1", "SYSTEM": "Recombinant human full-length Syk (Homo sapiens, UniProt P43405)", "pIC50": 8.22}
